Exercise: for every item that follows, state its recorded ΔpKa.
assay: Coformer pKa and ΔpKa; assay type: physicochemical; conditions: (R)-Baclofen versus coformer
Give bare numbers.

Reference set, count: 4
>>> df
                                   compound  measurednumber
0  NCC(CC(=O)O)c1ccc(Cl)cc1.NCC(CC(=O)O)c1ccc(Cl)cc1.O=C(O)C=CC(=O)O (centres unmarked) [Form VII]            0.77
1  NCC(CC(=O)O)c1ccc(Cl)cc1.NCC(CC(=O)O)c1ccc(Cl)cc1.O=C(O)c1ccccc1 (centres unmarked) [Form II]            -0.3
2  COc1cc(C=O)ccc1O.NCC(CC(=O)O)c1ccc(Cl)cc1.NCC(CC(=O)O)c1ccc(Cl)cc1 (centres unmarked) [Form IX]           -3.70
3  NCC(CC(=O)O)c1ccc(Cl)cc1.O=C(O)c1ccccc1O (centres unmarked) [Form VIII]            0.83

Let us move to another entry and its ΔpKa.
Noted for NCC(CC(=O)O)c1ccc(Cl)cc1.O=C(O)C=Cc1ccccc1 (centres unmarked) [Form III] : its ΔpKa reads -0.60
